# Tested Target: Muscarinic acetylcholine receptor
# Assay Info: In vitro antagonistic activity against peripheral Muscarinic acetylcholine receptor in guinea pig ileum as inhibition of acetylcholine induced muscle contraction
# Type: functional, tissue-based
Metric: IC50 (µM)

Known results for compounds:
CCCOc1noc2c1CNCC2.Cl
35
C=C(Br)COc1noc2c1CNCC2.Cl
22
CC(C)COc1noc2c1CNCC2.Cl
49

A: Cl.c1ccc(COc2noc3c2CNCC3)cc1
B: CC(C)Oc1noc2c1CNCC2.Cl
In terms of reported IC50, does A or B have the smaller number? Response format: the label of the selected entry.
B
(B: 11 µM, A: 48 µM)

----------
# Assay Info: Dissociation constant (pKa)
# Type: physicochemical
Metric: pKa

COC(=O)C1=CCCN(C)C1
7.8
Cl.c1ccc(COc2noc3c2CNCC3)cc1
7.5
C=CCOc1noc2c1CNCC2.Cl
7.5
C/C=C/COc1noc2c1CNCC2.Cl
7.7
COc1noc2c1CN(Cc1ccccc1)CC2.Cl
6.1
CCCCOc1noc2c1CNCC2.Cl
7.6
CC(C)Oc1noc2c1CNCC2.Cl
7.5
CC(C)COc1noc2c1CNCC2.Cl
7.7
C=C(Br)COc1noc2c1CNCC2.Cl
7.6
CCCOc1noc2c1CNCC2.Cl
7.6
C#CCOc1noc2c1CNCC2.Cl
7.6
COC(=O)C1=CCCNC1
8.7
CCN1CCc2onc(OC)c2C1.Cl
7
CCOc1noc2c1CN(C)CC2.Cl
6.6
CC#CCOc1noc2c1CNCC2.Cl
7.6
COc1noc2c1CN(C)CC2.Cl
6.6

Source of measurements: ChEMBL document CHEMBL1123456
